Tested on: human PKK mRNA
EXPERIMENT_SUMMARY: Antisense inhibition of human PKK mRNA in HepaRG cells, 1,000 nM, MOE/deoxy/cEt oligonucleotides (Example 3)
Type: cell-based
ASSAY_CONDITIONS: Table 30; human PKK mRNA, HepaRG cells, 1,000 nM antisense oligonucleotide
Strand notation (5' to 3'): a small letter for the sugar, then the base; units joined by * are phosphorothioate-linked, units joined directly phosphodiester-linked; [ ] holds rarer units or linkages, { } end groups; capitals alone tell only the bases. e = 2'-O-(2-methoxyethyl) (MOE); k = constrained ethyl (cEt); [5mC] = 5-methylcytosine; d = 2'-deoxy (DNA)
METRIC: % inhibition (%)
Give bare numbers, in %.

Solved cases (5 shown):
SUBSTANCE	UNIT_NAME	MEASURED_VALUE
548382 (eG*eA*kG*d[5mC]*dA*dA*dA*dT*dA*d[5mC]*dA*dG*dT*k[5mC]*k[5mC]*eA; antisense) [compound 548382]	%	19
548447 (antisense e[5mC]*eA*k[5mC]*dT*dG*dT*d[5mC]*d[5mC]*dT*dA*dT*dG*dT*k[5mC]*kA*e[5mC]) [compound 548447]	%	59
548409 (antisense eG*eT*kA*dT*d[5mC]*dA*d[5mC]*dT*dG*dT*dA*d[5mC]*dT*kA*kG*eT) [compound 548409]	%	81
548425 (antisense eA*eA*k[5mC]*dA*dG*dT*dA*dT*d[5mC]*dA*d[5mC]*dT*dG*kT*k[5mC]*e[5mC]) [compound 548425]	%	90
548443 (antisense eG*eT*kT*dT*d[5mC]*d[5mC]*dT*dA*dT*dA*dA*d[5mC]*dA*kG*kT*eA) [compound 548443]	%	12

Looking for the measured % inhibition of 548433 (antisense eT*eA*kT*d[5mC]*dA*d[5mC]*dT*dG*dT*dA*d[5mC]*d[5mC]*dT*kA*kT*eA) [compound 548433] , can you help? 33
